Experiment: qHTS assay to identify small molecule antagonists of the androgen receptor (AR) signaling pathway using the MDA cell line - cell viability counter screen (AID 743041; also: nearly all actives have a fitted effect of over 45% in size)
Details: MDA-kb2 viability, CellTiter-Fluor, 16 h, cells co-treated with R1881 androgen agonist; series mostly up to 70.3 µM
Inconclusive results are not listed. The source made the active and inactive calls. Calls follow the shape of the dose curve; as a rule, active = well fitted cell-killing curve with a large enough effect in the repeat runs; inconclusive = weak or mixed curves, or effect the other way; inactive = flat fitted curve, though single readings scatter.
Classes used: 1 (yes) = active, 0 (no) = inactive

| SMILES_STRUCTURE | DISCRETE_LABEL |
| --- | --- |
| CCCCCc1ccc(C)cc1O | 0 (no) |
| CCCCCCCCCCCCCCCCOCCOCCOCCOCCOCCOCCOCCOCCOCCOCCOCCOCCOCCOCCOCCOCCOCCOCCOCCOCCO | 1 (yes) |
| O=[N+]([O-])c1c(Cl)cccc1-c1c[nH]cc1Cl | 0 (no) |

* * *

Test: qHTS assay for identifying genotoxic compounds that show differential cytotoxicity against isogenic chicken DT40 cell lines with known DNA damage response pathways - Rad54/Ku70 mutant cell line (AID 743015); also: nearly all actives have a fitted effect of over 60% in size
Details: DT40 Rad54/Ku70 mutant viability, CellTiter-Glo, 40 h; series mostly up to 66.8 µM
Records with an inconclusive call do not appear. The source made the active and inactive calls. Calls follow the shape of the dose curve; as a rule, active = well fitted cell-killing curve with a large enough effect in the repeat runs; inconclusive = weak or mixed curves; inactive = no such curve, though single readings can be large or run the other way.
Classes used: active, inactive

| COMPOUND | DISCRETE_LABEL |
| --- | --- |
| CCCCCCCCCCCCCCCC(=O)O[C@@H]1[C@@H](O)[C@@H](O)[C@@H]([C@H](NC(=O)[C@@H]2C[C@@H](CCC)CN2C)[C@H](C)Cl)O[C@@H]1SC | inactive |
| Cc1ccc(/C(=C\CN2CCCC2)c2cccc(/C=C/C(=O)O)n2)cc1 | inactive |
| c1cnc2cc3c(cc2n1)[C@@H]1CNC[C@H]3C1 | inactive |
| CC(C)(C)NCC(O)c1ccc(O)c(CO)n1 (stereo not given) | inactive |
| OCCN1CCN(CC/C=C2/c3ccccc3Sc3ccc(Cl)cc32)CC1 | active |

* * *

Assay: qHTS assay for identifying genotoxic compounds that show differential cytotoxicity against isogenic chicken DT40 cell lines with known DNA damage response pathways - wild type cell line (AID 743012); also: nearly all actives have a fitted effect of over 60% in size
Conditions: DT40 wild type chicken cells viability, CellTiter-Glo, 40 h; series mostly up to 68.4 µM
Results filed as inconclusive are left out. The source made the active and inactive calls. The call rests on the fitted dose curve; in most records, active means well fitted cell-killing curve with a large enough effect in the repeat runs; inconclusive means weak or mixed curves, or effect the other way; inactive means no such curve, though single readings can be large or run the other way.
Classes used: active, inactive

| COMPOUND | DISCRETE_LABEL |
| --- | --- |
| O=C(O)c1nc(=O)[nH]c(=O)[nH]1 | inactive |
| CC(C)(C)CC(C)(C)c1cc(Cc2cc(C(C)(C)CC(C)(C)C)cc(-n3nc4ccccc4n3)c2O)c(O)c(-n2nc3ccccc3n2)c1 | inactive |
| CCN(CC)Cc1cc(Nc2ccnc3cc(Cl)ccc23)ccc1O | active |
| CO[C@H]1O[C@@H]2O[C@@]3(C)CC[C@H]4[C@H](C)CC[C@@H]([C@H]1C)[C@@]24OO3 | active |
| N[C@@H](C(=O)N[C@@H]1C(=O)N2C(C(=O)O)=C(CSc3cn[nH]n3)CS[C@H]12)c1ccc(O)cc1 | inactive |
| N#Cc1ccc2c(c1)N(CCCN1CCC(O)CC1)c1ccccc1S2 | active |
| CC(O)[C@@H]1NC(=O)[C@H](CCCCN)NC(=O)[C@@H](Cc2c[nH]c3ccccc23)NC(=O)[C@H](Cc2ccccc2)NC(=O)[C@@H](NC(=O)[C@H](N)Cc2ccccc2)CSSC[C@@H](C(=O)N[C@H](CO)[C@@H](C)O)NC1=O (stereo not given in full) | inactive |
| C[C@H](CCCC(C)(C)O)[C@H]1CC[C@H]2[C@@H]3CC=C4C[C@@H](O)CC[C@]4(C)[C@H]3CC[C@]12C | active |
| O=C1CCC(=O)N1CO | inactive |
| CC1=C(/C=C/C(C)=C/C=C/C(C)=C/C=C/C=C(C)/C=C/C=C(C)/C=C/C2=C(C)C(=O)CCC2(C)C)C(C)(C)CCC1=O | inactive |
| Cn1nnnc1SCC1=C(C(=O)O)N2C(=O)[C@@H](NC(=O)[C@H](OC=O)c3ccccc3)[C@H]2SC1 | inactive |
| [O]=[Bi][O][Bi]=[O] | inactive |
| COc1cc2c(cc1OC)[C@@H](c1ccccc1)CN(C)CC2 | active |
| CCCCC(=O)N(Cc1ccc(-c2ccccc2-c2nn[nH]n2)cc1)[C@@H](C(=O)O)C(C)C | inactive |
| CC1=C(/C=C/C(C)=C/C=C/C(C)=C/C=C/C=C(C)/C=C/C=C(C)/C=C/C2=C(C)C[C@@H](O)CC2(C)C)C(C)(C)C[C@H](O)C1 | active |
| CO[C@H]1C[C@H](O[C@H]2[C@H](C)[C@@H](O[C@@H]3O[C@H](C)C[C@H](N(C)C)[C@H]3OC(C)=O)[C@@H](C)C[C@]3(CO3)C(=O)[C@H](C)[C@@H](OC(C)=O)[C@@H](C)[C@@H](C)OC(=O)[C@@H]2C)O[C@@H](C)[C@@H]1OC(C)=O | inactive |
| CN1c2c(nc(N)[nH]c2=O)NCC1CNc1ccc(C(=O)NC(CCC(=O)O)C(=O)O)cc1 (stereo not given) | inactive |
| C[N+]1(C)CCN(CC(O)(c2ccccc2)C2CCCCC2)CC1 (stereo not given) | inactive |
| COc1ccc2cc([C@H](C)CO)ccc2c1 | inactive |
| CC(=O)c1ccc2c(c1)N(CCCN1CCN(CCO)CC1)c1ccccc1S2 | active |
